# MEASURED_TARGET: POU domain, class 5, transcription factor 1 (Homo sapiens)
# RUN_DESCRIPTION: Activation of human Oct3/4 in NCCIT cells transfected with firefly luciferase gene assessed as relative luciferase activity after 72 hrs by luminometer plate reader relative to DMSO control
# Assay type: cell-based
OBSERVABLE: RLU
In your answer, state the number alone without any accompanying words.

Need RLU, item Cc1ccc(COc2ccc(CC#N)cc2)cc1
2.26

Which RLU is reported for this compound? COc1ccc(COc2ccc(CC#N)cc2)cc1
2.68

Any idea what its RLU is? The compound is N#CCc1ccc(OCc2ccc(C#N)cc2)cc1
1.88

Record request: RLU value, item N#CCc1ccc(OCc2ccc([N+](=O)[O-])cc2)cc1
2.61

For the compound N#Cc1ccc(OCc2ccc([N+](=O)[O-])cc2)cc1 , what RLU is on record?
1.08

Consider the compound shown here: N#Cc1ccc(OCc2ccc(OC(F)(F)F)cc2)cc1 What is its recorded RLU?
1.5

Suppose we examine the compound N#Cc1ccc(OCc2ccc(F)cc2)cc1 ; what RLU value has been reported?
2.26

State the recorded RLU for this entry: N#CCc1ccc(OCc2ccc(F)cc2)cc1
4.02

Quick one: RLU for N#CCc1ccc(OCc2ccc(-c3ccccc3)cc2)cc1 ?
0.73

Please look up its RLU: N#CCc1ccc(OCc2ccc(OC(F)(F)F)cc2)cc1
2.14

Given the entry COc1ccc(COc2ccc(C#N)cc2)cc1 , report its measured RLU.
0.99
